Ref: patent US20260306640A1

molecular target: KAT2A (Homo sapiens); assay: KAT2A degradation, Western Blot (Jess), MOLM-13 cells; format: cell-based; set-up: degrader, Western blot; settings: MOLM-13 cells, KAT2A, 24 h, Western Blot, vs DMSO; read-out: KAT2A MOLM-13 DC50
Sequence (Q92830 whole entry): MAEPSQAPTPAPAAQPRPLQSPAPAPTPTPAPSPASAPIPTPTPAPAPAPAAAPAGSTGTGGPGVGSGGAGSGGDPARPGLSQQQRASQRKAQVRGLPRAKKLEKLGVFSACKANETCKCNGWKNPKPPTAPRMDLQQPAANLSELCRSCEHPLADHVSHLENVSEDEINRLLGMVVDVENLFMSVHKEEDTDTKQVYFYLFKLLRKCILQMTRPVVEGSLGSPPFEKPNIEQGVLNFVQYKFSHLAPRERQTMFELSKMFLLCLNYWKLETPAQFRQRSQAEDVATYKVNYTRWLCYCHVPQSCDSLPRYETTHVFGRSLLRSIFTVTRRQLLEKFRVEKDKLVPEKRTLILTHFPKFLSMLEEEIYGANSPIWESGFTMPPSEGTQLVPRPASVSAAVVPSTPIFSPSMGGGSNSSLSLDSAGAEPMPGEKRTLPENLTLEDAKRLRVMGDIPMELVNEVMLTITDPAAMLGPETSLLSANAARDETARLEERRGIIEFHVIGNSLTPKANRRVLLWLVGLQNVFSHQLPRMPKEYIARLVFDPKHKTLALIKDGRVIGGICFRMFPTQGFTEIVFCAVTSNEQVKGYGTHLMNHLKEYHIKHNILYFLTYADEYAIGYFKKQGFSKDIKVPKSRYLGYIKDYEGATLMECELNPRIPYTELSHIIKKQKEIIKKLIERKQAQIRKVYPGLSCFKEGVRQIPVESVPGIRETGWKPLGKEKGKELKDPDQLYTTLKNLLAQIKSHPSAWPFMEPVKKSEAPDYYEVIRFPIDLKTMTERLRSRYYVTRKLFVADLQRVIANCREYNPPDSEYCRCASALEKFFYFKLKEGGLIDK
Measured DC50 values are reported for all entries that follow.

Worked examples, 3 molecules total:
CN1C[C@H](Nc2cnn(C)c(=O)c2Br)C[C@H](c2ccc(COc3ccc4c(c3)CN(C3CCC(=O)NC3=O)C4=O)cc2)C1 (some centres unmarked) [Compound 65]    > 30 nM
CN1C[C@H](Nc2cnn(C)c(=O)c2Br)C[C@H](c2ccc(C(=O)N3CCC4(CC3)CCN(c3ccc(C5CCC(=O)NC5=O)cc3F)CC4)cc2)C1 (some centres unmarked) [Compound 146]    < 1 nM
CN1C[C@H](Nc2cnn(C)c(=O)c2Br)C[C@H](c2ccc(C(=O)N(C)Cc3ccc(Oc4cccc5c4C(=O)N(C4CCC(=O)NC4=O)C5=O)cc3)cc2)C1 (some centres unmarked) [Compound 33]    < 1 nM

QUERY: I have this molecule here, CN1C[C@H](Nc2cnn(C)c(=O)c2Br)C[C@H](c2ccc(C(=O)NCCCCCCCCOc3cccc4c3C(=O)N(C3CCC(=O)NC3=O)C4=O)cc2)C1 (some centres unmarked) [Compound 42] , and I need its recorded DC50.
RESULT: 1 to 30 nM

QUERY: Do the same for CN1C[C@H](Nc2cnn(C)c(=O)c2Br)C[C@H](c2ccc(CN3CCC(c4ccc5c(c4)CN(C4CCC(=O)NC4=O)C5=O)C3)cc2)C1 (some centres unmarked) [Compound 113] please
RESULT: < 1 nM

QUERY: Do the same for CN1C[C@H](Nc2cnn(C)c(=O)c2Br)C[C@H](c2ccc(C(=O)OCC3CCN(c4cccc5c4C(=O)N(C4CCC(=O)NC4=O)C5=O)CC3)cc2)C1 (some centres unmarked) [Compound 32] please
RESULT: 1 to 30 nM

QUERY: Do the same for CN1C[C@H](Nc2cnn(C)c(=O)c2Br)C[C@H](c2ccc(C(=O)N3CCC(c4ccc5c(c4)CN(C4CCC(=O)NC4=O)C5=O)CC3)cc2)C1 (some centres unmarked) [Compound 63] please
RESULT: < 1 nM

QUERY: Do the same for CN1C[C@H](Nc2cnn(C)c(=O)c2Br)C[C@H](c2ccc(C(=O)N(C)c3ccc(CCCOc4cccc5c4C(=O)N(C4CCC(=O)NC4=O)C5=O)cc3)cc2)C1 (some centres unmarked) [Compound 2] please
RESULT: 1 to 30 nM

QUERY: Do the same for CN1C[C@H](Nc2cnn(C)c(=O)c2Br)C[C@H](c2ccc(CN3CCC4(CCN(c5ccc6c(c5)C(=O)N(C5CCC(=O)NC5=O)C6=O)C4)C3)cc2)C1 (some centres unmarked) [Compound 109] please
RESULT: < 1 nM

QUERY: Do the same for CN1C[C@H](Nc2cnn(C)c(=O)c2Br)C[C@H](c2ccc(C(=O)N3CCC(C(=O)N4CCN(c5cccc6c5C(=O)N(C5CCC(=O)NC5=O)C6=O)CC4)CC3)cc2)C1 (some centres unmarked) [Compound 10] please
RESULT: 1 to 30 nM

QUERY: Do the same for CN1C[C@H](Nc2cnn(C)c(=O)c2Br)C[C@H](c2ccc(C(=O)N3CCC(C#CCOc4ccc5c(c4)C(=O)N(C4CCC(=O)NC4=O)C5=O)CC3)cc2)C1 (some centres unmarked) [Compound 54] please
RESULT: < 1 nM
